Values compiled from the supplement of paper PMC6607015.

- System: A431
- Assay Procedure: LBPA endosome anti-LBPA integrated intensity (sum per cell), Z-score; higher = more LBPA staining
- Experimental Parameters: compound concentration in added solution (µM; 5 µl added to 20 µl cells): 10; 18 h
Structures can show the parent of a compound that is named as a salt.
LBPA endosome anti-LBPA integrated intensity (z-score) of -0.3 or higher: t. Under -0.3: f.

> print(dat)
                                   compound  system.name  class.assignment
1  CN1CCN(C(c2ccccc2)c2ccccc2)CC1 [Cyclizine hydrochloride]         A431                 f
2  OCCN1CCN(CC/C=C2/c3ccccc3Sc3ccc(Cl)cc32)CC1 [Zuclopenthixol hydrochloride]         A431                 t
3  Cc1nnc(SCC2=C(C(=O)O)N3C(=O)[C@@H](NC(=O)Cn4cnnn4)[C@H]3SC2)s1 [Cefazolin sodium salt]         A431                 f
4       CCS(=O)(=O)CCn1c([N+](=O)[O-])cnc1C         A431                 f
5  C/C(=C(\CCOP(=O)(O)O)SC(=O)c1ccccc1)N(C=O)Cc1cnc(C)nc1N         A431                 f
